Reported IC50 values are given for each entry in this list.
SYSTEM NAME: recombinant SARS-CoV-2 spike S1 RBD (R319-F541), C-terminal 6-His (SARS-CoV-2, UniProt P0DTC2 319-541)
ASSAY PROCEDURE: lateral flow NC50, RBD-AuNP vs immobilised ACE2
MEASUREMENT NAME: IC50 (mg/L)

• 1035709 (antibody, V domains shown) VH: EVQLQQSGPELVKPGASVKISCKTSGYTFTEYTMHWVKQSHGKSLEWIGGINPNIVDTGYNQKFKGKATLTVDKSSSTAYMELRSLTSEDSAVYYCARDGYPLYYAMDYWGQGTSVTVSS VL: DIQMTQSPSSLSASLGERVSLTCRASQEISGYLSWLQQKPDGTIKRLIYAASTLDSGVPKRFSGSRSGSDYSLTISSLESEDFADYYCLQYASYPWTFGGGTKLEIK = 0.63
• 1035240 (antibody, V domains shown) VH: QVQLQQSGAELARPGASVKMSCKASGYTFTTYTMHWVKQRPGQGLEWIGYINPSSGYTNYNQKFKDKATLTADTSSSTAYMQLSSLTSEDSAVYYCARRNPLYAMDYWGQGTSVTVSS VL: DIKMTQSPSSMYASLGERVTITCKASQDINSYLNWFQQKPGKSPKTLIYRANRLVDGVPSRFSGSGSGQDYSLTISSLEYEDMGIYYCLQYDEFPYTFGGGTKLEIK = 0.34
• 1035740 (antibody, V domains shown) VH: EVLLQQSGPELVKPGASVKIPCKASGYTFTDYNMDWVKQSHGKSLEWIGDINPNNGFTIYNQKFKGKATLTVDKSSSTAYMELRSLTSEDTAVYYCAREGYGNYFDYWGQGTTLTVSS VL: DVLLTQSPAILSVSPGERVSFSCRASQSIGTSLHWYQQRTNGSPRLLIKYVSESISGIPSRFSGSGSGTDFTLSINSVESEDIADYYCQQSSSWPTTFGAGTKLELK = 1.43
• 1035762 (antibody, V domains shown) VH: EVQLQQSGPELVKPGASVKISCKTSGYTFTEYTMHWVKQSHGKSLEWIGGINPNNGDTGYNQKFKGKATLTVDKSSSTAYMELRSLTFEDSAVYYCARDGYPLYYAMDYWGQGTSVTVSS VL: DIQMTQSPSSLSASLGERVSLTCRASQEISGYLCWLQQKPDGTIKRLIYAASTLDSAVPKRFSGSRSGSDYSLTISSLESEDFADFYCLQYASYPWTFGGGTKLEIK = 0.69
